# Target or test system: T1, HA-GCN4 hAPRIL (amino acid residues 105-250) (human, UniProt O75888 105-250)
# T1 construct: Bought (R&D Systems); also called HA-tagged GCN4 human APRIL; HA-GCN4-huAPRIL; not shown: N-terminal HA tag; GCN4 isoleucine zipper oligomerization domain
# T1 sequence: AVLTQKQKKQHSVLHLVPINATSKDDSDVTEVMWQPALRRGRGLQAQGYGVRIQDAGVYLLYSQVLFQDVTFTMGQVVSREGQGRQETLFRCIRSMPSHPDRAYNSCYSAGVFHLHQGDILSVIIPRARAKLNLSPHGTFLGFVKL
# Test description: blocking ELISA; blocked: human APRIL binding to TACI-Fc
Property label: Relative Activity (normalised to 2419)
Write the number on its own, no unit after it.

Binder: monoclonal antibody 4035-062 (antibody, IgG1, V domains shown) VH: QVQLQESGPGLVKPSETLSLTCTVSGFSLTIYDVHWVRQPPGKGLEWIGVIWSDGSTDYNPSLKSRVTISKDTSKNQVSLKLSSVTAADTAVYYCARNWVDQAWFAYWGQGTLVTVSS VL: DIQMTQSPSSLSASVGDRVTITCRASKNIYSYLAWYQQKPGKAPKLLVYNAKTLPEGVPSRFSGSGSGTDFTLTISSLQPEDFATYYCQHHYGTPLTFGQGTKLEIK
Relative Activity (normalised to 2419): 0.93

# context switch: different binder, same Relative Activity (normalised to 2419)
Form field: reported Relative Activity (normalised to 2419) of 2419-0406 (antibody, V domains shown) VH: QVQLVQSGAEVKKPGSSVKVSCKASGYTFTDYTIHWVRQAPGQGLEWMGWIYPLRGSINYAEKFKGRVTLTADKSTSTVYMELSSLRSEDTAVYFCARHGAYYSNAFDYWGQGTLVTVSS VL: EIVMTQSPATLSVSPGERATLSCRASESVDNDGIRFLHWYQQKPGQAPRLLIYRASTRATGIPARFSGSGSRTEFTLTISSLQSEDFAVYYCQQSNKDPYTFGGGTKVEIK
1.2
